Reported RT (residence time) by item:
# Target Or System: T1, recombinant DLL3 ectodomain (rhDLL3-Fc) (human, UniProt Q9NYJ7 27-492, biotinylated (NHS-LC-LC-biotin) in the BLI and SPR assays)
# T1 construct: also called rDLL3-Fc; recombinant human DLL3 (rDLL3); not shown: Fc part
# T1 sequence: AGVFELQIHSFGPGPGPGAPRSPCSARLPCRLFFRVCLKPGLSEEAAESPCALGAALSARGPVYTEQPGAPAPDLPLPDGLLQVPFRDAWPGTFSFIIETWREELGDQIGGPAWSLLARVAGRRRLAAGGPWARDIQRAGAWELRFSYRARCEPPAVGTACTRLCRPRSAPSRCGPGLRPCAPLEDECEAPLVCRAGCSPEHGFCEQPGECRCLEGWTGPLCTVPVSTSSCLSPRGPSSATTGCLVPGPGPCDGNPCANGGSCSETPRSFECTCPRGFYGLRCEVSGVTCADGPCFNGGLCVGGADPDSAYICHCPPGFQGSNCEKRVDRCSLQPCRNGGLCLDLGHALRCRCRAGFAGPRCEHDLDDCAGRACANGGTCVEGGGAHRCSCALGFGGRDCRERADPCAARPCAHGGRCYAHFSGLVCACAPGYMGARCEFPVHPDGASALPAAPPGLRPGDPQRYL
# Assay Procedure: BLI (Octet), biotinylated rhDLL3-Fc on streptavidin sensors
Bridge positions count the residues as written; N and C are the ends. Ends that are not written are not given here.
The reply should contain only the number, in s.

Worked examples, 2 binders total:
| Binder | Observed Value |
| --- | --- |
| AETVEFYGCTGDAYEYTCTW-NH2 (disulfide 9-18 (inferred)) [PepSP1147] | 65.6 |
| AETVEFWTCHGNADEWTCSW-NH2 (disulfide 9-18 (inferred)) [PepSP1162] | 51 |

The record that follows has no RT (residence time) shown yet.
Find the recorded RT (residence time) belonging to AETVEFDYCLWAPDAWGCQN-NH2 (disulfide 9-18) [PepSP1159] and report it. 6

Value source: patent US20250074943A1
